outcome.measure: pKi
API: returns pKi as number; meaning -log10 of concentration in mol/L.

// query pKi of Clc1nccc2c(CN3CCN(c4ccccc4)CC3)c[nH]c12 on D(3) dopamine receptor (Homo sapiens)?
// result 5.21

// query pKi of Cc1cc2nc(C)c(CN3CCN(c4ccccc4)CC3)n2c(C)n1 on D(3) dopamine receptor (Homo sapiens)?
// result 5.38

// query pKi of COc1ccc(N2CCN(Cc3c(C)nc4cc(C)ncn34)CC2)cc1 on D(3) dopamine receptor (Homo sapiens)?
// result 4.89

// query pKi of COc1ccc(N2CCN(Cc3c(C)nc4cc(C)nc(C)n34)CC2)cc1 on D(3) dopamine receptor (Homo sapiens)?
// result 8.07

// query pKi of Cn1c(N2CCCC2)nc2c(CN3CCN(c4ccccc4)CC3)c[nH]c2c1=O on D(3) dopamine receptor (Homo sapiens)?
// result 6.48

====

- subject.of.test: D(4) dopamine receptor (Homo sapiens)
- method.description: Displacement of [3H]spiperone from human cloned dopamine D4.4 receptor expressed in CHO cells at 100 nM
- Type: cell-based
outcome.measure: Activity

// query What Activity value was documented for this compound, Cc1cc2nc(C)c(CN3CCN(c4ccc(Cl)c(Cl)c4)CC3)n2cn1 ?
// result 20%

// query What Activity value was documented for this compound, COc1ccccc1N1CCN(Cc2c(C)nc3cc(C)nc(C)n23)CC1 ?
// result 60%

// query What Activity value was documented for this compound, Cc1cc2ncc(CN3CCN(c4ccccc4)CC3)n2cn1 ?
// result 20%

// query What Activity value was documented for this compound, COc1ccc(N2CCN(Cc3cnc4cc(C)ncn34)CC2)cc1 ?
// result 0%

// query What Activity value was documented for this compound, COc1ccccc1N1CCN(Cc2cnc3cc(C)ncn23)CC1 ?
// result 0%

// query What Activity value was documented for this compound, Cc1cc2ncc(CN3CCN(c4ccc(Cl)c(Cl)c4)CC3)n2c(C)n1 ?
// result 0%

// query What Activity value was documented for this compound, COc1ccc(N2CCN(Cc3c(C)nc4cc(C)ncn34)CC2)cc1 ?
// result 60%

// query What Activity value was documented for this compound, COc1ccc(N2CCN(Cc3cnc4cc(OC)nc(OC)n34)CC2)cc1 ?
// result 0%

// query What Activity value was documented for this compound, COc1ccc(N2CCN(Cc3cnc4cc(C)nc(C)n34)CC2)cc1 ?
// result 0%

// query What Activity value was documented for this compound, COc1ccc(N2CCN(Cc3cnc4ccncn34)CC2)cc1 ?
// result 0%

// query What Activity value was documented for this compound, COc1ccccc1N1CCN(Cc2c(C)[nH]c3nc(N(C)C)ncc23)CC1 ?
// result 80%

====

- subject.of.test: D(4) dopamine receptor (Homo sapiens)
- Sequence (P21917 whole entry): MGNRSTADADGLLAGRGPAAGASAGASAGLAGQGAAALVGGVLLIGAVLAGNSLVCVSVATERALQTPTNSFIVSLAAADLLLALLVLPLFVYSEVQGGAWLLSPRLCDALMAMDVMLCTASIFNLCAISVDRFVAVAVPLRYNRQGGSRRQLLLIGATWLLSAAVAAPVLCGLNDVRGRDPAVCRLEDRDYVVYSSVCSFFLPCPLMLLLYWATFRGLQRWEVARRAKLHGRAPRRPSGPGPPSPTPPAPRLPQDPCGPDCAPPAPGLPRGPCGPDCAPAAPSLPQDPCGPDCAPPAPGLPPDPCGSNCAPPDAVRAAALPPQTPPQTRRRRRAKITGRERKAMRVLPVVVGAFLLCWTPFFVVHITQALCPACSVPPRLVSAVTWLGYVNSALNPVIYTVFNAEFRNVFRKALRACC
Would you kindly list Ki for each of these compounds?
Form entry: value (nM) — number only.

// query What Ki value was documented for this compound, COc1ccc(N2CCN(Cc3c(C)nc4cc(C)ncn34)CC2)cc1 ?
// result 12

// query What Ki value was documented for this compound, Clc1nccc2c(CN3CCN(c4ccccc4)CC3)c[nH]c12 ?
// result 6.4

// query What Ki value was documented for this compound, COc1ccccc1N1CCN(Cc2c(C)[nH]c3nc(N(C)C)ncc23)CC1 ?
// result 6.4

// query What Ki value was documented for this compound, COc1ccccc1N1CCN(Cc2c(C)nc3cc(C)nc(C)n23)CC1 ?
// result 14

====

Would you kindly list pKi for each of these compounds?
- subject.of.test: D(2) dopamine receptor (Homo sapiens)
- Sequence (P14416 whole entry): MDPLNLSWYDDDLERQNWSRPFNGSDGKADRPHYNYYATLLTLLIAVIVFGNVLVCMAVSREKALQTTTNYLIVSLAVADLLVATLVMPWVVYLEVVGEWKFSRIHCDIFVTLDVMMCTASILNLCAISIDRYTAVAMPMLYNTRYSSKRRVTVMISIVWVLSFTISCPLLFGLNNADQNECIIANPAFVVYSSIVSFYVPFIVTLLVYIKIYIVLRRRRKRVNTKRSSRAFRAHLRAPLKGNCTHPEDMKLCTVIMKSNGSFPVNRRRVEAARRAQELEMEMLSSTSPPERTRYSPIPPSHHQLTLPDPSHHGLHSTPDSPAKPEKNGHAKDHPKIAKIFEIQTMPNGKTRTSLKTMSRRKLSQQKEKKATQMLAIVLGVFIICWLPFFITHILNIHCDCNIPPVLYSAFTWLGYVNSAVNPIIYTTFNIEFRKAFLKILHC
- method.description: biochemical
- Description: Displacement of [3H]spiroperidol from human cloned dopamine D2 short receptor expressed in CHO cells
API: returns pKi as number; meaning -log10 of concentration in mol/L.

// query What pKi value was documented for this compound, Cn1c(N2CCCC2)nc2c(CN3CCN(c4ccc(Cl)c(Cl)c4)CC3)c[nH]c2c1=O ?
// result 6.42

// query What pKi value was documented for this compound, Cn1c(N2CCCC2)nc2c(CN3CCN(c4ccc(F)cc4)CC3)c[nH]c2c1=O ?
// result 6.40

// query What pKi value was documented for this compound, COc1ccccc1N1CCN(Cc2c(C)nc3cc(C)nc(C)n23)CC1 ?
// result 5.54

// query What pKi value was documented for this compound, COc1ccc(N2CCN(Cc3c(C)nc4cc(C)ncn34)CC2)cc1 ?
// result 4.89

// query What pKi value was documented for this compound, Cn1c(N2CCCC2)nc2c(CN3CCN(c4ccccn4)CC3)c[nH]c2c1=O ?
// result 6.82

// query What pKi value was documented for this compound, COc1ccccc1N1CCN(Cc2cnc3cc(C)nc(C)n23)CC1 ?
// result 6.24
